I'd be grateful if you could share measured WIZ Amax for these entries.
- tested on: WIZ (Homo sapiens, UniProt O95785+Q96SW2)
- Construct: expressed in transfected cells
- Sequence (O95785 whole entry): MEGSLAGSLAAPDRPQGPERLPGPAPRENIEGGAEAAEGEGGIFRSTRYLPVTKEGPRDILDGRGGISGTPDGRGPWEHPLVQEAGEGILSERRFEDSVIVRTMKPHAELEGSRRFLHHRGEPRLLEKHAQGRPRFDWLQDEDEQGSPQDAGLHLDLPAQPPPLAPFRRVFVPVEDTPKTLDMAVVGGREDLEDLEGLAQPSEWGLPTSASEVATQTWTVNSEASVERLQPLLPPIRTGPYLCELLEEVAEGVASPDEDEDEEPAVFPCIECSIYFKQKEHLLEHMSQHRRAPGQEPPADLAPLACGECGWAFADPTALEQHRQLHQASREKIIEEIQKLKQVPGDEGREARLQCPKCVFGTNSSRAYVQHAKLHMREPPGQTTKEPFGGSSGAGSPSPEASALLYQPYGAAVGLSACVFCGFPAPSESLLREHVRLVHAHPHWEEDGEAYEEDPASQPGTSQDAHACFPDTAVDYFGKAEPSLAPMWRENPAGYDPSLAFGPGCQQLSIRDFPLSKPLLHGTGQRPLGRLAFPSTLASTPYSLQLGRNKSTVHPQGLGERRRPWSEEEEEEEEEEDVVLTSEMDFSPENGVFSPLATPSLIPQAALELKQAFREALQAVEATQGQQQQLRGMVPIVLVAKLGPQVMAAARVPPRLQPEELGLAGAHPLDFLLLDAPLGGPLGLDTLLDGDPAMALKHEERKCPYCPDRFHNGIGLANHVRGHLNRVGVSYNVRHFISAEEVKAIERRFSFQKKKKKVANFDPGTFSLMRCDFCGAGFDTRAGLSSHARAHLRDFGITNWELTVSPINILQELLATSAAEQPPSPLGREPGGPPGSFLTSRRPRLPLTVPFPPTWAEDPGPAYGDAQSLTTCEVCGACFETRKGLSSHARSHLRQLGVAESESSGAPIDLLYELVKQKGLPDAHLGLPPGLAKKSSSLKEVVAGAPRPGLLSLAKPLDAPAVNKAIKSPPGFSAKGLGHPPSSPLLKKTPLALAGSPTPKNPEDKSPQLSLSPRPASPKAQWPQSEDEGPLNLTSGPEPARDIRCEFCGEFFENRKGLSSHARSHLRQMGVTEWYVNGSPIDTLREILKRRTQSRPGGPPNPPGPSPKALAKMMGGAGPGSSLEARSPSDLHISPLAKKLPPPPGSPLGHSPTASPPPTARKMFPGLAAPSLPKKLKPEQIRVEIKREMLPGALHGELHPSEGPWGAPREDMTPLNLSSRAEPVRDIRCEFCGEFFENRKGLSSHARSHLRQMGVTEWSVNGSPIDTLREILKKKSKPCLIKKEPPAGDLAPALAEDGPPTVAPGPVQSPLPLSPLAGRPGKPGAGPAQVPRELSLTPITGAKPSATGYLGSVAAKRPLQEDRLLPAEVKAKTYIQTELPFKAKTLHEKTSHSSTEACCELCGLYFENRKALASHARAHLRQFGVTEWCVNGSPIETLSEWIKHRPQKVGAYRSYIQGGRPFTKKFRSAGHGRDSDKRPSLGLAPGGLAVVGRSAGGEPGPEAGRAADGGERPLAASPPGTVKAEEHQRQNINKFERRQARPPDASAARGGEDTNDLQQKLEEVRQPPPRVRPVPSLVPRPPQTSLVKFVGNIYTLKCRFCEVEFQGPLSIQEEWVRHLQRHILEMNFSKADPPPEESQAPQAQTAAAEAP
- Sequence (Q96SW2 whole entry): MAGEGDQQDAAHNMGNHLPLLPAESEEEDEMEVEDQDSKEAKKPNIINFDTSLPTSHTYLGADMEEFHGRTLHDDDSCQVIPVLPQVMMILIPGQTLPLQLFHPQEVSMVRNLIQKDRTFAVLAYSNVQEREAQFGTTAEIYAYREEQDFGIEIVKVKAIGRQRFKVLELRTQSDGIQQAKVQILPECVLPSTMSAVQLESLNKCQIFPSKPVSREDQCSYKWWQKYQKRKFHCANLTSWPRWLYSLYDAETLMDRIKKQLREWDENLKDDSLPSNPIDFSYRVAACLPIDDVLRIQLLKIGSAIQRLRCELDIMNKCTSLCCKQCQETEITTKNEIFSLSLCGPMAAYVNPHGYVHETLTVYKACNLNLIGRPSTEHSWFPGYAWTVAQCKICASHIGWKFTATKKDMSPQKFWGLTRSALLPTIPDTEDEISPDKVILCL
- Sequence (Q16531 whole entry partner): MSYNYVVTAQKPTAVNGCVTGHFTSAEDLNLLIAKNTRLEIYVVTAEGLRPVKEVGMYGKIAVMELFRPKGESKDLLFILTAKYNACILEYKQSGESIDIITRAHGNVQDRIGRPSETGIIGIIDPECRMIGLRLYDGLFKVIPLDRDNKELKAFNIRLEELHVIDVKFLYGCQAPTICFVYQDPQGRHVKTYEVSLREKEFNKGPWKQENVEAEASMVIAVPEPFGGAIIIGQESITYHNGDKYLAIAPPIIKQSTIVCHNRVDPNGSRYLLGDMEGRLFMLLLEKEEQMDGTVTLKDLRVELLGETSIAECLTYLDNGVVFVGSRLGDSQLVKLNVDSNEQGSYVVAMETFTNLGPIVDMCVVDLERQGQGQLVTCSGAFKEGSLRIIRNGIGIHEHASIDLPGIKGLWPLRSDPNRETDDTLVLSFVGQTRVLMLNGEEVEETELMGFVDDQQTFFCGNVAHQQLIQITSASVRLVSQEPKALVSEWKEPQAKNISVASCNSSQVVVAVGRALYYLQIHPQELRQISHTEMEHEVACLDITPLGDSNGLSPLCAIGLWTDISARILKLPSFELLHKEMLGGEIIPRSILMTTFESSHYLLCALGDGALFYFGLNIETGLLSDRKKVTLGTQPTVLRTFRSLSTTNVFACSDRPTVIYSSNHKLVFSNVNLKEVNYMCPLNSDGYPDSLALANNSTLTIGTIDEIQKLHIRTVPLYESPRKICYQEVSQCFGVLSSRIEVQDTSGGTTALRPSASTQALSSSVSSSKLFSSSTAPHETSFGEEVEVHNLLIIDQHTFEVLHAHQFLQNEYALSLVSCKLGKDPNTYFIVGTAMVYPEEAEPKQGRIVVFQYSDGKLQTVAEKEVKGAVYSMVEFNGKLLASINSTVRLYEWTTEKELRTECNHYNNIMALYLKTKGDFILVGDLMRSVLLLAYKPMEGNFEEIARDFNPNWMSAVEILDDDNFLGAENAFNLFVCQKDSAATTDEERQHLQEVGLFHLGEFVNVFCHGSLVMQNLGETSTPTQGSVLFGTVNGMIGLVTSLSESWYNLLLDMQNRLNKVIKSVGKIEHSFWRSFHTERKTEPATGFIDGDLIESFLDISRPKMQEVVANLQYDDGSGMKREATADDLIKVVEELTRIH
- procedure text: Quantification of WIZ protein levels in HiBit tag fusion protein assay (WIZ HiBit assay in 293T cells)
- Format: cell-based
- run parameters: DMSO-normalized, curve-fitted percentage of WIZ-HiBit remaining at 25 uM
Field: numeric (%). Do not append units.

Specify measured WIZ Amax for CC(C)(C)OC(=O)N1[C@@H]2CC[C@H]1CC(Cc1ccc3onc(N4CCC(=O)NC4=O)c3c1)C2 (single isomer, unassigned) [Example 55] . 30

Specify measured WIZ Amax for CN1CC2CCC1CN2Cc1ccc2onc(N3CCC(=O)NC3=O)c2c1 (single isomer, unassigned) [Example 124] . 15

Specify measured WIZ Amax for CC(C)(C)OC(=O)N1[C@@H]2CC[C@H]1CC(Cc1ccc3onc(N4CCC(=O)NC4=O)c3c1)C2 (single isomer, unassigned) [Example 54] . 8

Specify measured WIZ Amax for CS(=O)(=O)N1CC2CCC1CN2Cc1ccc2onc(N3CCC(=O)NC3=O)c2c1 (single isomer, unassigned) [Example 126] . 17

Specify measured WIZ Amax for CS(=O)(=O)N1[C@@H]2CC[C@H]1CC(Cc1ccc3onc(N4CCC(=O)NC4=O)c3c1)C2 (stereo partly drawn) [Example 61] . 15

Specify measured WIZ Amax for O=C1CCN(c2noc3ccc(CN4CC5CCC4CN5CC4CCOCC4)cc23)C(=O)N1 (single isomer, unassigned) [Example 122] . 9

Specify measured WIZ Amax for O=C1CCN(c2noc3ccc(CC4C[C@H]5CC[C@@H](C4)N5)cc23)C(=O)N1 (stereo partly drawn) [Example 56] . 55

Specify measured WIZ Amax for O=C1CCN(c2noc3ccc(CC4C[C@H]5CC[C@@H](C4)N5)cc23)C(=O)N1 (stereo partly drawn) [Example 57] . 20

Specify measured WIZ Amax for CN1[C@@H]2CC[C@H]1CC(Cc1ccc3onc(N4CCC(=O)NC4=O)c3c1)C2 (stereo partly drawn) [Example 59] . 16

* * *

- tested on: WIZ (Homo sapiens, UniProt O95785+Q96SW2)
- Construct: expressed in transfected cells
- procedure text: Quantification of WIZ protein levels in HiBit tag fusion protein assay (WIZ HiBit assay in 293T cells)
- Type: cell-based
- run parameters: WIZ HiBit assay in 293T cells; 10-point, 5-fold dilution, highest concentration 25 μM, about 18 hours; read-out: WIZ AC50
# true (1) = DC50 below 400 nM (exclusive); false (0) = DC50 at/above 400 nM

Please check: DC50 for O=C1CCN(c2noc3ccc(CC4CCCNC4)cc23)C(=O)N1 (centres unmarked) , strictly under 400 nM or not? false (0)

Please check: DC50 for C[C@@H]1CN(C(=O)N2CCCC2)CCN1Cc1ccc2onc(N3CCC(=O)NC3=O)c2c1 , strictly under 400 nM or not? true (1)

Please check: DC50 for O=C1CCN(c2noc3ccc(CC4CCN(Cc5cccnc5)CC4)cc23)C(=O)N1 , strictly under 400 nM or not? true (1)

Please check: DC50 for CN1C[C@H]2C[C@@H]1CN2Cc1ccc2onc(N3CCC(=O)NC3=O)c2c1 , strictly under 400 nM or not? true (1)

Please check: DC50 for O=C1CCN(c2noc3ccc(CN4CCN(CC5CCOCC5)[C@@H](C(F)F)C4)cc23)C(=O)N1 , strictly under 400 nM or not? true (1)

Please check: DC50 for O=C1CCN(c2noc3ccc(CC4CCCN(CC5CCCCC5)C4)cc23)C(=O)N1 (centres unmarked) , strictly under 400 nM or not? false (0)

Please check: DC50 for Cc1c(CN2CCN(C)[C@@H](C)C2)ccc2onc(N3CCC(=O)NC3=O)c12 , strictly under 400 nM or not? true (1)
